experiment: qHTS RealTime-Glo MT Cell Viability Assay in HEK293 cells - 16 hour (AID 1224872); conditions: RealTime-Glo luminescence; series mostly up to 76.8 µM; further: top concentration of the series differs between compounds; on the % scale 0 is the no-effect control and ±100 the full control effect; nearly all actives have a fitted effect of over 50% in size
Records with an inconclusive call do not appear. Activity calls are given as the source filed them. The call rests on the fitted dose curve; in most records, active means well fitted cell-killing curve with a large enough effect in the repeat runs; inconclusive means weak or mixed curves, or effect the other way; inactive means flat fitted curve, though single readings scatter.
I'd be grateful if you could share measured activity change, negative = cytotoxicity for these entries.

Sure, the documented activity change, negative = cytotoxicity for `CCCCCCCCCCCCCCCCCO` is -0.33% [at 15.8 µM] (inactive)

Sure, the documented activity change, negative = cytotoxicity for `O=S(=O)(O)c1cc(S(=O)(=O)O)c2ccc3c(S(=O)(=O)O)cc(S(=O)(=O)O)c4ccc1c2c43` is 1.53% [at 15.8 µM] (inactive)

Sure, the documented activity change, negative = cytotoxicity for `C=CC(=C)CC/C=C(\C)CCC=C(C)C` is -2.14% [at 15.8 µM] (inactive)

Sure, the documented activity change, negative = cytotoxicity for CCC(=O)CC(C)CC (stereo not given) is 5.55% [at 0.29 µM] (inactive)

Sure, the documented activity change, negative = cytotoxicity for `C=C/C=C/C=C/CCCCC` is 13.8% [at 15.8 µM] (inactive)

----------
assay: A CellTox Green Cytotoxicity Assay to monitor cytotoxicity in HepG2 cells - 40 hour (AID 1224879); settings: CellTox Green fluorescence; series mostly up to 76.8 µM; further: nearly all actives have a fitted effect of over 40% in size
Inconclusive results are not listed. Activity calls are given as the source filed them. Calls come from the whole dose curve; as a rule, active = well fitted activation curve with a large enough effect in the repeat runs; inconclusive = weak or mixed curves; inactive = flat fitted curve, though single readings scatter.
Please state which outcome applies, choosing from class 1 = active, class 0 = inactive

Input line: Outcome? `COC(=O)[C@]1(C)CCC[C@@]2(C)[C@H]1CC=C1C=C(C(C)C)CC[C@@H]12`
Output line: class 1

Input line: Outcome? `Cc1cncc(C)c1`
Output line: class 0

Input line: Outcome? C=CC(C)C#N (stereo unspecified)
Output line: class 0

Input line: Outcome? `Clc1cccnc1`
Output line: class 0

Input line: Outcome? `CCN(CC)c1ccc(N)cc1`
Output line: class 1

Input line: Outcome? `CCCCCCCCCCCCCCNCCO`
Output line: class 1

----------
test: qHTS RealTime-Glo MT Cell Viability Assay in HEK293 cells - 24 hour (AID 1224886); settings: RealTime-Glo luminescence; series mostly up to 76.8 µM; further: nearly all actives have a fitted effect of over 50% in size
Records with an inconclusive call do not appear. Active and inactive are the calls of the source. Calls come from the whole dose curve; as a rule, active = well fitted cell-killing curve with a large enough effect in the repeat runs; inconclusive = weak or mixed curves, or effect the other way; inactive = flat fitted curve, though single readings scatter.
Please state which outcome applies, choosing from active, inactive

Input line: Outcome? CC1CNCC(C)O1 (stereo not drawn)
Output line: inactive

Input line: Outcome? `Cn1cnc2ncnc(N)c21`
Output line: inactive

Input line: Outcome? `CCO[Si](CCCSSSSCCC[Si](OCC)(OCC)OCC)(OCC)OCC`
Output line: inactive

Input line: Outcome? `O=C(O)CC(=O)O`
Output line: inactive

Input line: Outcome? `CNCC[C@H](Oc1cccc2ccccc12)c1cccs1`
Output line: active

Input line: Outcome? `CC(C)N=C(N)/N=C(\N)Nc1ccc(Cl)cc1`
Output line: active

Input line: Outcome? C=CC(C)(CCC=C(C)C)OC(=O)/C=C/c1ccccc1 (stereo not drawn)
Output line: inactive

Input line: Outcome? `Cc1cc(Nc2ccc(O)cc2)ccc1N`
Output line: active

Input line: Outcome? CC1CCCCN1CCCOC(=O)c1ccc(OC2CCCCC2)cc1 (stereo not drawn)
Output line: active

Input line: Outcome? `C=CC(=O)OCCN(CC)CC`
Output line: inactive

Input line: Outcome? `N#CSCSc1nc2ccccc2s1`
Output line: active

Input line: Outcome? `NCCCC(O)(P(=O)(O)O)P(=O)(O)O`
Output line: inactive

Input line: Outcome? `CCCCCCOc1ccc(O)cc1`
Output line: active

Input line: Outcome? `c1ccc(Nc2cccc3ccccc23)cc1`
Output line: inactive

Input line: Outcome? `O=C1NCN(c2ccccc2)C12CCN(CCCC(c1ccc(F)cc1)c1ccc(F)cc1)CC2`
Output line: active

Input line: Outcome? `NC(=O)c1ccccc1N`
Output line: inactive

Input line: Outcome? `CC(C)(c1cc(Br)c(O)c(Br)c1)c1cc(Br)c(O)c(Br)c1`
Output line: inactive

Input line: Outcome? `CCCCCCCC/C=C\CCCCCCCC(=O)NCc1ccc(O)c(OC)c1`
Output line: active

Input line: Outcome? `CC[N+](CC)(CC)Cc1ccccc1`
Output line: inactive

Input line: Outcome? CCCC(C)CCC(C)=O (stereo not drawn)
Output line: inactive

Input line: Outcome? `CCC1(c2cnc[nH]2)Cc2ccccc2C1`
Output line: inactive

Input line: Outcome? `COc1cc(C(=O)NS(=O)(=O)c2ccccc2C)ccc1Cc1cn(C)c2ccc(NC(=O)OC3CCCC3)cc12`
Output line: inactive

Input line: Outcome? CCOC(=O)CC(C)O (stereo not drawn)
Output line: inactive

Input line: Outcome? `COC(=O)[C@]1(C)CCC[C@@]2(C)[C@H]1CC=C1C=C(C(C)C)CC[C@@H]12`
Output line: inactive

Input line: Outcome? `CCCCCCCCCCCC(=O)N(CC)CC`
Output line: inactive

Input line: Outcome? `Oc1c(Br)cc(Br)c2cccnc12`
Output line: inactive

Input line: Outcome? COc1cccc(CCc2ccccc2OCC(CN(C)C)OC(=O)CCC(=O)O)c1 (stereo not drawn)
Output line: inactive

Input line: Outcome? `Cc1cc(C)c(C=O)c(C)c1`
Output line: inactive
